Reference source: patent US20250171542A1

- Target Or System: human PD-L1 expressed on cell surface (human, UniProt Q9NZQ7 19-290)
- Sequence (Q9NZQ7 19-290 limits assumed): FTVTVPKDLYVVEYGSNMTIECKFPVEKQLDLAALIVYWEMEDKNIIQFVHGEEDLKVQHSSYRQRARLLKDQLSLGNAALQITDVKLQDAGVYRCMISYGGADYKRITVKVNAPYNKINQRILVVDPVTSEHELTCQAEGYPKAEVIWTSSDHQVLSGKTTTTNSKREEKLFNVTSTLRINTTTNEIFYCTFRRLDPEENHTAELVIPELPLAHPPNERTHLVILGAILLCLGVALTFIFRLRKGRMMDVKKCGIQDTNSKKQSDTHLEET
- Measurement Protocol: cell-based or functional assay
Measurement Label: IC50 (nM), Promega PD-1/PD-L1 blockade reporter assay, another assay
All answers are understood in nM, so give the number only.

# query: IC50 (nM), Promega PD-1/PD-L1 blockade reporter assay, another assay of entry 28B3 (antibody, human IgG1, V domains shown) VH: QSVEESGGRLVTPGTPLTLSCTASGFSLSSYYMIWVRQAPGKGLEYIGYVYTGSGNTWYASWAKGRFAISKASTTVDLMITSPTTEDTATYFCASGADGVYDWGWDIWGPGTLVTVSL VL: DIVMTQTPASVEAAVGDTVTIKCQASQSIYSLLAWYQQKPGQRPKLLIAGASNLESGVPSRFSGSGSGTEYTLTISALECADAATYYCQNNYDSGRIYGLAFGGGTEVVVK
0.33

I have this binder here, 74A9 (antibody, human IgG1, V domains shown) VH: QSVEESGGRLVTPGTPLTLTCAVSGFSLSTYALGWVRQAPGKGLEWIGSISIGGATYYASWAKGRFTISKTSTTVDLKIASPTTEDTATYFCARNVDSIYLDAFHTWGPGTLVTVSL VL: DIVMTQTPASVEAAVGGTVTIKCQASQNIYNNLAWYQQKPGQPPKLLIYRASTLASGVPSRFKGSGSGTEYTLTISDLECDDAATYYCQTYYLTTTTNAFGGGTEVVVK , and I need its recorded IC50 (nM), Promega PD-1/PD-L1 blockade reporter assay, another assay.
0.46

Give the measured IC50 (nM), Promega PD-1/PD-L1 blockade reporter assay, another assay of 27A2 (antibody, human IgG1, V domains shown) VH: QEQLEESGGGLVQPEGSLTLTCTASGFSFSSNHYMSWVRQAPGKGLEWIGSIGVGSGITDYASWAKGRFTISKASSTTLTLQMTTLTAADTAIYFCARWTSGGGGFGLWGPGTLVTVSS VL: QVLTQTSSPVSAAVGGTVTINCQSSQTIYSDYLFWYQQTPGQPPKLLIYQTSTLASGVPSRFKGSGSGTEFTLTISEIQCDDAATYYCQGYYSGYIWTFGGGTEVVVR .
0.35
